system: OVCAR-5 ovarian; test: NCI tumour cell line growth inhibition, 48 h
Below, each entry is listed alongside its reported TGI.
Only the number, expressed in µM, is required.

smilesInput | systemUnderTest | readingUnit | TGI
COc1ccc(C(=O)N/N=C/c2ccc(O)cc2O)cc1Nc1ccnc(C(F)(F)F)c1 | OVCAR-5 ovarian | µM | 33

Note down TGI recorded for COC(=O)[C@]12CC[C@@H](C)[C@H](C)[C@@H]1C1=CC[C@@H]3[C@@]4(C)C=C(O)C(=O)C(C)=C4CC[C@@]3(C)[C@]1(C)CC2 38.6

====

test system: UACC-257 melanoma; assay: NCI tumour cell line growth inhibition, 48 h
experimentalReadout: TGI

Reference set (2 entries):
molecule | TGI
C=C(COC(=O)C(C)C)[C@H]1Oc2ccc(C(C)=O)cc2[C@@H]1OC(=O)C(C)C | > 100 µM
Cc1ccc(NC(=O)CC(=O)N2N=C(c3ccccc3)C(N=Nc3ccc(S(=O)(=O)CCOS(=O)(=O)O)cc3)C2=O)cc1 (stereo not drawn) | > 100 µM

Query molecule follows.
Write down TGI measured for item O=C(O)C(CO)NC(=O)C1C(C(=O)O)C(c2ccccc2[N+](=O)[O-])C=C(c2ccco2)N1c1ccncc1 (stereo not drawn) 9.9 µM

====

system: KM12 colon; test: NCI tumour cell line growth inhibition, 48 h
experimentalReadout: TGI

Illustrative cases are given below, each with its answer.
compound | reported
CC1CN=C(N(C)C(=O)Nc2ccc(Cl)c(Cl)c2)S1 (stereo not drawn) | > 100 µM
COC1=CCC2=C(CCN(C(=O)C3CCC3)C2Cc2ccc(OC)c(O)c2)C1 (stereo not drawn) | > 100 µM

Switching to the query record.
Return the recorded TGI value; entry: C1C[OH+]CC[OH+]CC[OH+]CC[OH+]CC[OH+]CC[OH+]1.[Cl-].[Ta+5] > 100 µM

====

tested on: T-47D breast; experiment: NCI tumour cell line growth inhibition, 48 h
experimentalReadout: GI50

molecule | GI50
Nc1c(O)c(S(=O)(=O)O)c(O)c2c1C(=O)c1ccccc1C2=O | 2.36 µM
CC(=O)OC1=C2C(CC3C4CC=C5CC(OC(C)=O)CCC5(C)C4CCC23C)C2C(=O)N(Cc3ccccc3)C(=O)C2C1 (stereo unspecified) | 3.12 µM

# next molecule below
Name the recorded GI50 of the molecule listed here: CCOC(=O)c1cnc2c(cnn2CC)c1NN=C(C)C 29 µM

====

tested on: HT29 colon; assay: NCI tumour cell line growth inhibition, 48 h
The entries below are paired with their reported TGI.

Specify the recorded TGI for CN(C)CCNC(=O)c1cccc2c1nc(-c1ccccn1)c1ccccc12 , system: HT29 colon. 39.9 µM

Report TGI under test system HT29 colon for O=[N+]([O-])c1ccc(Cl)cc1N/N=C/c1cccs1 . > 100 µM

State measured TGI of the compound CC(C)C(/C=C/c1ccccc1)=N\NC(=S)NN with HT29 colon. > 100 µM

State TGI on HT29 colon. Entry: OC(C(=Nc1ccccc1)c1ccccc1)c1ccccc1 (stereo unspecified) 25.6 µM

Specify the recorded TGI for Cc1nc2sccn2c1C(=O)OCCOCCOCCOCCOC(=O)c1c(C)nc2sccn12 , system: HT29 colon. > 100 µM

State TGI on HT29 colon. Entry: CC12CCC(C1)C(C)(C)C2OC(=O)c1ccccc1C(=O)O (stereo unspecified) > 100 µM

GET TGI where system = HT29 colon and item = O=C1c2ccccc2C2(O)Oc3cccc(O)c3C12O (stereo unspecified) > 100 µM
